- Measured Target: Thymidylate synthase (Mus musculus)
- Sequence (P07607 whole entry): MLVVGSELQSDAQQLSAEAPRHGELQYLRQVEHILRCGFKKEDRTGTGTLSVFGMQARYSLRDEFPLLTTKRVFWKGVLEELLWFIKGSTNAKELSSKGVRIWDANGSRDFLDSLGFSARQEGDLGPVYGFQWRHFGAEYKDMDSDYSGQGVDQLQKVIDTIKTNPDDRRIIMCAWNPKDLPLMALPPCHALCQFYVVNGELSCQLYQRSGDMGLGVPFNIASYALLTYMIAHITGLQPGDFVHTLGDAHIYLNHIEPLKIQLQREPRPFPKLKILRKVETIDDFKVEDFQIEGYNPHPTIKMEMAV
- Assay Comment: In vitro inhibition of L1210 thymidylate synthase
// reported IC50 per item

# Compound, Unit Descriptor, Comparison Sign, IC50
records = [
    ("C#CCN(Cc1ccc2nc(N)nc(O)c2c1)c1ccc(C(=O)NC(CCC(=O)O)C(=O)O)c(C)c1 (centres undefined)", "nM", "=", 400),
    ("C#CCN(Cc1ccc2nc(N)nc(O)c2c1)c1ccc(C(=O)NC(CCC(=O)O)C(=O)O)cc1Cl (centres undefined)", "nM", "=", 5000),
    ("C#CCN(Cc1ccc2nc(N)nc(O)c2c1)c1c(Cl)cc(C(=O)NC(CCC(=O)O)C(=O)O)cc1Cl (centres undefined)", "nM", ">", 5000),
    ("C#CCN(Cc1ccc2nc(N)nc(O)c2c1)c1ccc(C(=O)NC(CCC(=O)O)C(=O)O)c(Cl)c1 (centres undefined)", "nM", "=", 30),
]
